Experiment: qHTS assay to identify small molecule antagonists of the thyroid receptor (TR) signaling pathway (AID 743065); note: nearly all actives have a fitted effect of over 55% in size
Conditions: GH3.TRE-Luc, T3-stimulated luciferase inhibition, 23.5 h; series mostly up to 70.3 µM
Records with an inconclusive call do not appear. Active and inactive are the calls of the source. Calls come from the whole dose curve; as a rule, active = well fitted inhibition curve with a large enough effect in the repeat runs; inconclusive = weak or mixed curves; inactive = no such curve, though single readings can be large or run the other way.
Please state which outcome applies, choosing from active, inactive

| Compound | Group Label |
| --- | --- |
| CCS(=O)(=O)CCSP(=O)(OC)OC | inactive |
| CNCC(=O)c1ccc(O)c(O)c1 | inactive |
| CCC(C)(C)c1cc(-n2nc3ccccc3n2)c(O)c(C(C)(C)CC)c1 | inactive |
| COc1cccc2c1cc([N+](=O)[O-])c1c(C(=O)O)cc3c(c12)OCO3 | active |
| O=C1OC(=O)C2C1C1(Cl)C(Cl)=C(Cl)C2(Cl)C1(Cl)Cl (stereo unspecified) | inactive |
| CN1C[C@@H](NS(=O)(=O)N(C)C)C[C@@H]2c3cccc4c3c(cn4C)C[C@H]21 | inactive |
| CC(C)NCC(O)c1ccc(N)c(C#N)c1 (stereo unspecified) | inactive |
| CC(COc1ccc(Oc2ccccc2)cc1)Oc1ccccn1 (stereo unspecified) | inactive |
| O=C(N[C@H]1CN2CCC1CC2)c1cc2ccoc2cn1 | inactive |
| CC(=O)CC(c1ccc(Cl)cc1)c1c(O)c2ccccc2oc1=O (stereo unspecified) | inactive |

// query Short answer needed: outcome of this test for NC1=NC(=O)C(c2ccccc2)O1 (stereo unspecified) ?
// result inactive

// query Short answer needed: outcome of this test for O=C(Nc1ccccc1)N(Cc1ccc(Cl)cc1)C1CCCC1 ?
// result active

// query Short answer needed: outcome of this test for Nc1cnn(-c2ccccc2)c(=O)c1Cl ?
// result inactive

// query Short answer needed: outcome of this test for CNC(=O)N(C)c1nc2ccccc2s1 ?
// result inactive

// query Short answer needed: outcome of this test for OC(Cn1cncn1)(c1ccc(F)cc1)c1ccccc1F (stereo unspecified) ?
// result inactive

// query Short answer needed: outcome of this test for CC1(C)CON(Cc2ccccc2Cl)C1=O ?
// result inactive

// query Short answer needed: outcome of this test for CCCCP(CCCC)CCCC ?
// result inactive

// query Short answer needed: outcome of this test for CC(C)(C)C(=O)C(Oc1ccc(Cl)cc1)n1cncn1 (stereo unspecified) ?
// result inactive

// query Short answer needed: outcome of this test for ClC(Cl)Br ?
// result inactive

// query Short answer needed: outcome of this test for C#CCN1C(=O)COc2cc(F)c(N3C(=O)C4=C(CCCC4)C3=O)cc21 ?
// result inactive

// query Short answer needed: outcome of this test for CCSC(=O)N(CC)C1CCCCC1 ?
// result inactive

// query Short answer needed: outcome of this test for c1cc[c]([Hg][c]2ccccc2)cc1 ?
// result active

// query Short answer needed: outcome of this test for CCN(CC)CCOC(=O)C(C)(c1ccccc1)c1ccccc1 ?
// result active

// query Short answer needed: outcome of this test for Cc1nnc2n1-c1sc(CCC(=O)N3CCOCC3)cc1C(c1ccccc1Cl)=NC2 ?
// result inactive

// query Short answer needed: outcome of this test for CCOC(=O)/C=C(C)/C=C/C[C@@H](C)CCCC(C)C ?
// result inactive

// query Short answer needed: outcome of this test for CC(CC(C#N)(c1ccccc1)c1ccccc1)N(C)C (stereo unspecified) ?
// result active
